target: Isocitrate dehydrogenase [NADP] cytoplasmic (Homo sapiens, UniProt O75874, R132H); experiment: Inhibition Assay: Assays were conducted in a volume of 76 μl assay buffer (150 mM NaCl, 10 mM MgCl2, 20 mM Tris pH 7.5, 0.03% bovine serum albumin) as follows in a standard 384-well plate: To 25 ul of substrate mix (8 uM NADPH, 2 mM aKG), 1 μl of test compound was added in DMSO. […] The reaction was incubated for 50 minutes at room temperature, then 25 μl of detection mix (30 μM resazurin, […]) was added and the mixture further incubated for 5 minutes at room temperature.
Sequence (O75874 2-414 R132H limits assumed): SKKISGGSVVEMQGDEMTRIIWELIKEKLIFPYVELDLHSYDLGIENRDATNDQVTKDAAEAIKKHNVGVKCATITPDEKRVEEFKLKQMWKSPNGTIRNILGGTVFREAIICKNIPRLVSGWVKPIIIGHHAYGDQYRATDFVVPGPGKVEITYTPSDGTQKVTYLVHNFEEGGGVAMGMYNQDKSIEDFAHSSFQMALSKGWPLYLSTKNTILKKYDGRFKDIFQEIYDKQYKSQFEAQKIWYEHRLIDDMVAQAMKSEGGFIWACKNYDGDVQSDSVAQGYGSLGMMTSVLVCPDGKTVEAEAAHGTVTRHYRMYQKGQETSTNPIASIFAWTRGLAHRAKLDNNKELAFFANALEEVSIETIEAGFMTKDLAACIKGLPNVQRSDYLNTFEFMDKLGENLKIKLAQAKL
Below is a list of entries, each paired with its recorded IC50 value.

Some solved entries appear below for comparison.
compound=CC(C)[C@@H]1CN(c2nc(C3CC3)c3c(c2C#N)CC(C)(C)OC3)CCN1C(=O)CCC(=O)OCCO result="< 500 nM"
compound=C#CC(=O)N1CCc2c(C#N)c(N3CCN(C(=O)CCOC)[C@H](C4CC4)C3)nc(C3CC3)c2C1 result="< 500 nM"
compound=CC(C)c1nc(N2CCN(C(=O)Cc3cccs3)CC2)c(C#N)c2c1COC(C)(C)C2 result="1000 to 10000 nM"
compound=COCCC(=O)N1CCN(c2nc(C3CC3)c3c(c2C#N)CN(S(C)(=O)=O)CC3)C[C@H]1C1CC1 result="< 500 nM"

In the following, a different compound is considered.
Prompt line: // returns reported IC50 for input `C=CC(=O)N1CCc2c(C3CC3)nc(N3CCN(C(=O)C4CC4)[C@H](C4CC4)C3)c(C#N)c2C1`
Response line: < 500 nM
